# MEASURED ON: T1, biotinylated GITR (human, UniProt Q9Y5U5 26-161, limits assumed, biotinylated (sites not given))
# T1 construct: also called GITR-bio; Biotin-GITR
# T1 sequence: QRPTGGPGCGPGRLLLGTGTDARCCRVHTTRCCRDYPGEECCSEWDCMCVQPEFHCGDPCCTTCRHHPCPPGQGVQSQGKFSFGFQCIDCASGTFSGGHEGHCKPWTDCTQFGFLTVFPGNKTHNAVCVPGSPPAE
# MEASUREMENT PROTOCOL: BLI (Octet), biotin-GITR on streptavidin tips, antibody supernatant
MEASURED PARAMETER: pKd
// scale note: pKd = -log10(conc_M); give the bare number

Note to self: pKd recorded for germline variant antibody 20 (H1916B12 / K1916B12) (antibody, V domains shown, IGHG1/IGKC expression vectors; measured from CHO culture supernatant; also called Antibody ID 20) VH: QVQLVQSGTEVKKPGASVKVSCKASGYTFTDYAMYWVRQAPGQGLEWIGVIRTFSGDLSYNQKFRGRVTMTVDTSISTAYMELSRLRSDDTAVYYCAKSGTVRGFAYWGQGTLVTVSS VL: DIVMTQSPDSLAVSLGERATINCKSSQSLLNSGNQKNYLTWYQQKPGQPPKMLLYWASTRESGVPDRFTGSGSGTDFTLTISSVQAEDVAVYHCQNDYSYPYTFGQGTKLEIK was 8.87

Note to self: pKd recorded for germline variant antibody 101 (H1917H01 / K1917H01) (antibody, V domains shown, IGHG1/IGKC expression vectors; measured from CHO culture supernatant) VH: QVQLVQSGAEVKKPGASVKVSCKASGYTFTDYAMHWVRQAPGQGLEWMGLIRTFSGGVSYNQKFQDRVTMTVDKSISTAYMELSRLRSDDTAVYYCAKSGTVRGFAYWGQGTLVTVSS VL: DIVMTQSPDSLAVSLGERATINCKSSQSLLNSSNQKNYLTWYHQKPGQPPKLLIYWASTRESGVPDRFSGSGSGTDFTLTISSVQAEDVAVYHCQNDYSFPYTFGQGTKLEIK was 9.45

Note to self: pKd recorded for germline variant antibody 102 (H1917H02 / K1917H02) (antibody, V domains shown, IGHG1/IGKC expression vectors; measured from CHO culture supernatant; also called Antibody ID 102) VH: QVQLVQSGTEVKKPGASVKVSCKASGYTFTGYAMYWVRQAPGQGLEWIGVIRTYSGGVSYNQKFRDRVTMTVDTSISTAYMELSRLRSDDTAVYYCAKSGTVRGFAYWGQGTLVTVSS VL: DIVMTQSPDSLAVSLGERATINCKSSQSLLNSSNQKNYLSWYQQKPGQPPKLLIYWASTRESGVPDRFTGSGSGTDFTLTISSVQAEDVAVYYCQNDYSYPYTFGQGTKLEIK was 8.71

Note to self: pKd recorded for germline variant antibody 11 (H1916Al2 / K1916A12) (antibody, V domains shown, IGHG1/IGKC expression vectors; measured from CHO culture supernatant; also called Antibody ID 11) VH: QVQLVQSGAEVKKPGASVKVSCKGSGYTFTDYAMHWVRQAPGQGLEWMGLIRTYSGGVSYNQKFRGRVTMTVDTSISTAYMELSRLRSDDTAVYYCAKSGTVRGFAYWGQGTLVTVSS VL: DIVMTQSPDSLAVSLGERATINCKSSQSLLNSSNQKNYLSWYQQKPGQPPKLLIYWASTRESGVPDRFSGSGSGTDFTLTISSVQAEDVAVYHCQNDYSFPYTFGQGTKLEIK was 8.68

Note to self: pKd recorded for germline variant antibody 16 (H1916B06 / K1916B06) (antibody, V domains shown, IGHG1/IGKC expression vectors; measured from CHO culture supernatant; also called Antibody ID 16) VH: QVQLVQSGTEVKKPGASVKVSCKASGYTFTGYAMYWVRQAPGQGLEWIGLIRTFSGGVTYNQKFRERVTMTVDKSISTAYMELSRLRSDDTAVYYCAKSGTVRGFAYWGQGTLVTVSS VL: DIVMTQSPDSLAVSLGERATINCKSSQSLLNSGNQKNYLTWYHQKPGQPPKLLIYWASTRESGVPDRFTGSGSGTDFTLTISSVQAEDVAVYHCQNDYSYPYTFGQGTKLEIK was 8.83

Note to self: pKd recorded for germline variant antibody 46 (H1916E06 / K1916E06) (antibody, V domains shown, IGHG1/IGKC expression vectors; measured from CHO culture supernatant; also called Antibody ID 46) VH: QVQLVQSGAEVKKPGASVKVSCKASGYTFTEYAMYWVRQAPGQGLEWMGLIRTFSGDLSYNQKFRGRVTMTVDTSISTAYMELSRLRSDDTAVYYCAKSGTVRGFAYWGQGTLVTVSS VL: DIVMTQSPDSLAVSLGERATINCKSSQSLLNSGNQKNYLSWYHQKPGQPPKLLIYWASTRESGVPDRFTGSGSGTDFTLTISSLQAEDVAVYHCQNDYSYPYTFGQGTKLEIK was 9.21

Note to self: pKd recorded for germline variant antibody 5 (H1916A06 / K1916A06) (antibody, V domains shown, IGHG1/IGKC expression vectors; measured from CHO culture supernatant; also called Antibody ID 5) VH: QVQLVQSGAEVKKPGASVKVSCKGSGYTFTEYAMHWVRQAPGQGLEWMGLIRTYSGGVTYNQKFRGRVTMTVDTSISTAYMELSRLRSDDTAVYYCAKSGTVRGFAYWGQGTLVTVSS VL: DIVMTQSPDSLAAPGERATINCKSSQSLLNSSNQKNYLTWYHQKPGQPPKLLIYWASTRESGVPDRFTGSGSGTDFTLTISSVQAEDVAVYYCQNEYSFPYTFGQGTKLEIK was 8.79

Note to self: pKd recorded for germline variant antibody 47 (H1916E08 / K1916E08) (antibody, V domains shown, IGHG1/IGKC expression vectors; measured from CHO culture supernatant; also called Antibody ID 47) VH: QVQLVQSGAEVKKPGASVKVSCKASGYTFTDYAMYWVRQAPGQGMEWMGVIRTYSGGVTYNQKFRDRVTMTVDKSISTAYMELSRLRSDDTAVYYCAKSGTVRGFADWGQGTLVTVSS VL: DIVMTQSPDSLAVSLGERATINCKSSQSLLNSGNQKNYLSWYQQKPGQPPKLLIYWASTRESGVPDRFTGSGSGTDFTLTISSVQAEDVAVYHCQNDYSFPYTFGQGTKLEIK was 8.69

Note to self: pKd recorded for germline variant antibody 75 (H1917C09 / K1917C09) (antibody, V domains shown, IGHG1/IGKC expression vectors; measured from CHO culture supernatant; also called Antibody ID 75) VH: QVQLVQSGTEVKKPGASVKVSCKGSGYTFTGYAMYWVRQAPGQGLEWIGVIRTYSGGVTYNQKFQGRVTMTVDKSISTAYMELSRLRSDDTAVYYCAKSGTVRGFAYWGQGTLVTVSS VL: DIVMTQSPDSLAVSLGERATINCKSSQSLLNSGNQKNYLSWYHQKPGQPPKLLIYWASTRESGVPDRFTGSGSGTDFTLTISSLQAEDVAVYYCQNDYSYPYTFGQGTKLEIK was 8.53

Note to self: pKd recorded for germline variant antibody 2 (H1916A03 / K1916A03) (antibody, V domains shown, IGHG1/IGKC expression vectors; measured from CHO culture supernatant; also called Antibody ID 2) VH: QVQLVQSGAEVKKPGASVKVSCKASGYTFTEYAMHWVRQAPGQGMEWIGLIRTYSGGVSYNQKFRGRATMTVDKSISTAYMELSRLRSDDTAVYYCAKSGTVRGFAYWGQGTLVTVSS VL: DIVMTQSPDSLAVSLGERATINCKSSQSLLNSGNQKNYLSWYHQKPGQPPKLLIYWASTRESGVPDRFSGSGSGTDFTLTISSVQAEDVAVYYCQNEYSFPYTFGQGTKLEIK was 8.37
